Data origin, for the record: patent US20260109732A1

Assay Info: Diameter and PDI from DLS measurements of mRNA nanoparticles with lipid amines
Format: physicochemical
Condition Description: CFTR mRNA nanoparticle with lipid amine
Where a name gives a salt, the structure may show the parent alone.
Observation Type: Diameter (nm)
Give the quantity in nm, number only.

Worked examples, 6 compounds total:
{"Compound": "CC[C@H](CC[C@@H](C)[C@H]1CC[C@H]2[C@@H]3CC=C4C[C@@H](OC(=O)N(CCCCNCCC(N)(CC)CC)CCC(N)(CC)CC)CC[C@]4(C)[C@H]3CC[C@]12C)C(C)C [SA183, trihydrochloride]", "Result Value": 71}
{"Compound": "CC(C)CCC[C@@H](C)[C@H]1CC[C@H]2[C@@H]3CC=C4C[C@@H](OC(=O)CCC(=O)N(CCCCNCCC(C)N)CCC(C)N)CC[C@]4(C)[C@H]3CC[C@]12C (stereo partly shown) [SA160, trihydrochloride]", "Result Value": 77.4}
{"Compound": "CC(C)CCC[C@@H](C)[C@H]1CC[C@H]2[C@@H]3CC=C4C[C@@H](OC(=O)CCCC(=O)N(CCCN(C)C)CCCN(C)C)CC[C@]4(C)[C@H]3CC[C@]12C.Cl.Cl", "Result Value": 74.3}
{"Compound": "CC[C@H](CC[C@@H](C)[C@H]1CC[C@H]2[C@@H]3CC=C4C[C@@H](OC(=O)CCCC(=O)N(CCCCNCCC(N)(CC)CC)CCC(N)(CC)CC)CC[C@]4(C)[C@H]3CC[C@]12C)C(C)C [SA182, trihydrochloride]", "Result Value": 72}
{"Compound": "CC(C)CCC[C@@H](C)[C@H]1CC[C@H]2[C@@H]3CC=C4C[C@@H](OC(=O)N(CCCN)CCCCCCCCCCN)CC[C@]4(C)[C@H]3CC[C@]12C [SA95, dihydrochloride]", "Result Value": 83.6}
{"Compound": "CC(C)CCC[C@@H](C)[C@H]1CC[C@H]2[C@@H]3CC=C4C[C@@H](OC(=O)CCC(=O)N(CCCCCCCC(C)N)CCC(C)N)CC[C@]4(C)[C@H]3CC[C@]12C (stereo partly shown) [SA162, dihydrochloride]", "Result Value": 75.4}

Consider the compound shown here: CC(C)CCC[C@@H](C)[C@H]1CC[C@H]2[C@@H]3CC=C4C[C@@H](OC(=O)N(CCCCNCCC(C)N)CCC(C)N)CC[C@]4(C)[C@H]3CC[C@]12C (stereo partly shown) [SA76, trihydrochloride] What is its recorded Diameter (nm)?
83.9

Similarly, CC[C@H](CC[C@@H](C)[C@H]1CC[C@H]2[C@@H]3CC=C4C[C@@H](OC(=O)CCC(=O)N(CCC(C)(C)N)CCC(C)(C)N)CC[C@]4(C)[C@H]3CC[C@]12C)C(C)C [SA170, dihydrochloride] ?
74.8

Similarly, CC[C@H](CC[C@@H](C)[C@H]1CC[C@H]2[C@@H]3CC=C4C[C@@H](OC(=O)N(CCCCCCCC(C)N)CCC(C)N)CC[C@]4(C)[C@H]3CC[C@]12C)C(C)C (stereo partly shown) [SA144, dihydrochloride] ?
69.3

Similarly, CC[C@H](CC[C@@H](C)[C@H]1CC[C@H]2[C@@H]3CC=C4C[C@@H](OC(=O)CCC(=O)N(CCC(C)N)CCC(C)N)CC[C@]4(C)[C@H]3CC[C@]12C)C(C)C (stereo partly shown) [SA168, dihydrochloride] ?
76.1
